Origin of values: paper PMC2630467

# study-system: CYP2C9 (Homo sapiens)
# Sequence (P11712 whole entry): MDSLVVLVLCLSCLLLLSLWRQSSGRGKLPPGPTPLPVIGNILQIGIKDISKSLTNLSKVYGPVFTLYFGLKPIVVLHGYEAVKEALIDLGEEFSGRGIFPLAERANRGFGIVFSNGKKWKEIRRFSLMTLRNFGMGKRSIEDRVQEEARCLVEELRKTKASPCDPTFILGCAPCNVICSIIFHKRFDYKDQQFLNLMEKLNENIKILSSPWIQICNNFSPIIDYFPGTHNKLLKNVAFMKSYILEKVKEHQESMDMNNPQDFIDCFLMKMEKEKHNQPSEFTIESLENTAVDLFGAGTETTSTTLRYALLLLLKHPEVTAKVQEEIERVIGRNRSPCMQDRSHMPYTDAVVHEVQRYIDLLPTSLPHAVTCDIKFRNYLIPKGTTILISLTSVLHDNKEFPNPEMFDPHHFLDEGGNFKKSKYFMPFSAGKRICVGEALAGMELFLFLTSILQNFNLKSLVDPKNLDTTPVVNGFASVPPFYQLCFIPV
quantity-measured: Ki (nM)
Could you give me the number in nM? Just the number is fine.

The recorded Ki with CYP2C9 (Homo sapiens) for `O=C(Nc1ccccc1)c1cc(-c2ccncc2)nc2ccccc12` was 79.8
